These measurements were taken from patent US20210069143A1.

Experiment: Gamma radiation (25-40 kGy) and 5-month storage stability of composition components in HDPE bottles
Assay type: physicochemical
Conditions: HDPE bottle, Unexposed
Listing of recorded Concentration % Change, T = 0 vs. T = 5 Months by entry.
All answers are understood in %, so give the number only.

COMPOUND	UNIT_ABBREVIATION	RESULT
CC(C)O	%	1.6

Reported Concentration % Change, T = 0 vs. T = 5 Months of COC(=O)c1ccc(O)cc1 [Methylparaben, methyl-para-hydroxybenzoate] : 0.5

GET /value?item= CCCOC(=O)c1ccc(O)cc1 [Propylparaben, propyl-para-hydroxybenzoate] &field=Concentration % Change, T = 0 vs. T = 5 Months returns 0.5

O=C(O)CC(O)(CC(=O)O)C(=O)O yielded Concentration % Change, T = 0 vs. T = 5 Months of −3.3
